Target: CYP17 (human testicular microsome) (Homo sapiens)
Construct: using microsomal fraction from human testis (Celsis Cat #S00110) as the enzyme source; tissue Celsis S00110; host or cells: human testis microsomal fraction
Sequence (P05093 1-508): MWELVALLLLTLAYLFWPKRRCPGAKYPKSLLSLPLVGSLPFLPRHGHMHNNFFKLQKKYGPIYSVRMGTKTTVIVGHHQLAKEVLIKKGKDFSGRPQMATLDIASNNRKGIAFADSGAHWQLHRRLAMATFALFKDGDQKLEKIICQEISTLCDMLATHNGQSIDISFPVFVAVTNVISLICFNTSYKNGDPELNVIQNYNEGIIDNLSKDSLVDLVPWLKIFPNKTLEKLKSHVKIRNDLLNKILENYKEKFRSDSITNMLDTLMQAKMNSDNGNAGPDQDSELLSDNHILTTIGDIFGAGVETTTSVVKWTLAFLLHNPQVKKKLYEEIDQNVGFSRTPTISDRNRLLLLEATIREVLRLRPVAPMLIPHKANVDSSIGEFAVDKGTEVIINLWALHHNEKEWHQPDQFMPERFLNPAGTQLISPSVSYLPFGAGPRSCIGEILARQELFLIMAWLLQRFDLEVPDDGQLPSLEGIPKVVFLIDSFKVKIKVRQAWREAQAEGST
Assay: CYP17 enzymatic assay (% inhibition at 1 nM) (Biological Example 12)
Assay type: biochemical
Conditions: compound at 1 nM, read-out: CYP17 enzymatic assay % inhibition at 1 nM (Biological Example No. 12)
measurement.kind: inhibition at 0.001 µM

Example compounds with recorded inhibition at 0.001 µM:
{"compound": "COc1cncc(C2=CC[C@H]3[C@@H]4CC=C5C[C@H](NC(=O)C6CC6)CC[C@]5(C)[C@H]4CC[C@]23C)c1 [Compound 230]", "target.of.assay": "CYP17 (human testicular microsome) (Homo sapiens)", "inhibition at 0.001 µM": "> 50%"}
{"compound": "CCNC(=O)N[C@@H]1CC[C@@]2(C)C(=CC[C@@H]3[C@@H]2CC[C@]2(C)C(c4cccnc4)=CC[C@@H]32)C1 [Compound 232]", "target.of.assay": "CYP17 (human testicular microsome) (Homo sapiens)", "inhibition at 0.001 µM": "> 50%"}

Query: Endpoint output: inhibition at 0.001 µM of CC(C)C(=O)N[C@@H]1CC[C@@]2(C)C(CCC3C2CC[C@]2(C)C(c4cccnc4)=CCC32)C1 (stereo partly drawn) [Compound 216] . Value?
Response: > 50%

Query: Endpoint output: inhibition at 0.001 µM of C[C@]12CC[C@H](O)CC1CCC1C2CC[C@]2(C)C(c3cccnc3)CCC12 (stereo partly drawn) [Compound 473] . Value?
Response: < 10%

Query: Endpoint output: inhibition at 0.001 µM of Cc1ccncc1C1=CC[C@H]2[C@@H]3CC[C@H]4CC(=O)NCC[C@]4(C)[C@H]3CC[C@]12C [Compound 462] . Value?
Response: 10 to 50%

Query: Endpoint output: inhibition at 0.001 µM of C#C[C@]1(O)CC[C@@]2(C)C(CCC3C2CC[C@]2(C)C(c4cccnc4)=CCC32)C1 (stereo partly drawn) [Compound 474] . Value?
Response: 10 to 50%
